Tested on: Calu-6 non-small cell lung cancer cell line of a mutation RONΔ155 type
Procedure Details: MTS assay, cell growth inhibitory ability, Calu-6
Type: cell-based
Protocol Conditions: Homo sapiens; Calu-6, RON mutation Δ155, 72 hours
Counter-ions that a name gives are not always drawn.
The reader will find reported pIC50 values listed item by item below.
Kindly note that pIC50 refers to -log10 of the concentration in mol/L and answer with the value alone.

1. CCOc1ccn(-c2ccc(F)cc2)c(=O)c1C(=O)Nc1ccc(Oc2ccnc3cc(-c4ccc(CN5CCOCC5)cn4)sc23)c(F)c1.Cl [Example 1, hydrochloride]; 6.14
2. CCOc1ccn(-c2ccccc2)c(=O)c1C(=O)Nc1ccc(Oc2ccnc3cc(-c4ccc(CNCCOC)cn4)sc23)c(F)c1 [Example 2, hydrochloride]; 5.14
3. COc1cc2c(Oc3ccc(NC(=O)c4c5c(cn(-c6ccc(F)cc6)c4=O)CCO5)cc3F)ccnc2cc1OCCCN1CC(C#N)C1; 5.88

Record request: pIC50 value, item COc1cc2c(Oc3ccc(NC(=O)c4c5c(cn(-c6ccc(F)cc6)c4=O)CCO5)cc3F)ccnc2cc1OCCN1CCOCC1 6.07

Repeat for the following compound: CCOc1ccn(-c2ccccc2)c(=O)c1C(=O)Nc1ccc(Oc2ccnc3cc(-c4ccc(CN5CCN(C)CC5)cn4)sc23)c(F)c1 [Example 3, hydrochloride] 5.81

* * *

Test system: NCI-H358 non-small cell lung cancer cell line of a mutation RONΔ155 type
Procedure Details: MTS assay, cell growth inhibitory ability, NCI-H358
Type: cell-based
Protocol Conditions: Homo sapiens; NCI-H358, RON mutation Δ155, 72 hours
Procedure: In order to compare and confirm the cell growth inhibitory ability of Examples 1 (WM-S1-030) to 5, positive control 1 (BMS-777607) and positive control 2 (AMG-510) in four non-small cell lung cancer cell lines of a mutation RONΔ155 type (Calu-6, A549, NCI-H358, NCI-H1944), MTS assay was carried out. […]
Structures can show the parent of a compound that is named as a salt.
Readout Label: pIC50
Kindly note that pIC50 refers to -log10 of the concentration in mol/L and answer with the value alone.

See these solved cases before continuing.
1. COc1cc2c(Oc3ccc(NC(=O)c4c5c(cn(-c6ccc(F)cc6)c4=O)CCO5)cc3F)ccnc2cc1OCCN1CCOCC1 [Example 4]; 6.05
2. CCOc1ccn(-c2ccccc2)c(=O)c1C(=O)Nc1ccc(Oc2ccnc3cc(-c4ccc(CNCCOC)cn4)sc23)c(F)c1 [Example 2, hydrochloride]; 5.04

As a next step, examine the molecule that follows.
Record request: pIC50 value, item COc1cc2c(Oc3ccc(NC(=O)c4c5c(cn(-c6ccc(F)cc6)c4=O)CCO5)cc3F)ccnc2cc1OCCCN1CC(C#N)C1 [Example 5] 6.57

* * *

The reader will find reported pIC50 values listed item by item below.
System: NCI-H358 non-small cell lung cancer cell line of a mutation RONΔ155 type
Procedure Details: MTS assay, cell growth inhibitory ability, NCI-H358
Type: cell-based
Protocol Conditions: Homo sapiens; NCI-H358, RON mutation Δ155, 72 hours
Where a name gives a salt, the structure may show the parent alone.
Kindly note that pIC50 refers to -log10 of the concentration in mol/L and answer with the value alone.

See these solved cases before continuing.
1) CCOc1ccn(-c2ccc(F)cc2)c(=O)c1C(=O)Nc1ccc(Oc2ccnc3cc(-c4ccc(CN5CCOCC5)cn4)sc23)c(F)c1.Cl [Example 1, hydrochloride]; 5.90
2) C=CC(=O)N1CCN(c2nc(=O)n(-c3c(C)ccnc3C(C)C)c3nc(-c4c(O)cccc4F)c(F)cc23)[C@@H](C)C1 [Positive control 2, reference compound]; 7.30

As a next step, examine the compound that follows.
Record request: pIC50 value, item CCOc1ccn(-c2ccccc2)c(=O)c1C(=O)Nc1ccc(Oc2ccnc3cc(-c4ccc(CN5CCN(C)CC5)cn4)sc23)c(F)c1 [Example 3, hydrochloride] 5.58
